Reference source: paper PMC12891850

system: aldehyde oxidase 1 (AOX1) (Homo sapiens, UniProt Q06278)
Sequence (Q06278 whole entry): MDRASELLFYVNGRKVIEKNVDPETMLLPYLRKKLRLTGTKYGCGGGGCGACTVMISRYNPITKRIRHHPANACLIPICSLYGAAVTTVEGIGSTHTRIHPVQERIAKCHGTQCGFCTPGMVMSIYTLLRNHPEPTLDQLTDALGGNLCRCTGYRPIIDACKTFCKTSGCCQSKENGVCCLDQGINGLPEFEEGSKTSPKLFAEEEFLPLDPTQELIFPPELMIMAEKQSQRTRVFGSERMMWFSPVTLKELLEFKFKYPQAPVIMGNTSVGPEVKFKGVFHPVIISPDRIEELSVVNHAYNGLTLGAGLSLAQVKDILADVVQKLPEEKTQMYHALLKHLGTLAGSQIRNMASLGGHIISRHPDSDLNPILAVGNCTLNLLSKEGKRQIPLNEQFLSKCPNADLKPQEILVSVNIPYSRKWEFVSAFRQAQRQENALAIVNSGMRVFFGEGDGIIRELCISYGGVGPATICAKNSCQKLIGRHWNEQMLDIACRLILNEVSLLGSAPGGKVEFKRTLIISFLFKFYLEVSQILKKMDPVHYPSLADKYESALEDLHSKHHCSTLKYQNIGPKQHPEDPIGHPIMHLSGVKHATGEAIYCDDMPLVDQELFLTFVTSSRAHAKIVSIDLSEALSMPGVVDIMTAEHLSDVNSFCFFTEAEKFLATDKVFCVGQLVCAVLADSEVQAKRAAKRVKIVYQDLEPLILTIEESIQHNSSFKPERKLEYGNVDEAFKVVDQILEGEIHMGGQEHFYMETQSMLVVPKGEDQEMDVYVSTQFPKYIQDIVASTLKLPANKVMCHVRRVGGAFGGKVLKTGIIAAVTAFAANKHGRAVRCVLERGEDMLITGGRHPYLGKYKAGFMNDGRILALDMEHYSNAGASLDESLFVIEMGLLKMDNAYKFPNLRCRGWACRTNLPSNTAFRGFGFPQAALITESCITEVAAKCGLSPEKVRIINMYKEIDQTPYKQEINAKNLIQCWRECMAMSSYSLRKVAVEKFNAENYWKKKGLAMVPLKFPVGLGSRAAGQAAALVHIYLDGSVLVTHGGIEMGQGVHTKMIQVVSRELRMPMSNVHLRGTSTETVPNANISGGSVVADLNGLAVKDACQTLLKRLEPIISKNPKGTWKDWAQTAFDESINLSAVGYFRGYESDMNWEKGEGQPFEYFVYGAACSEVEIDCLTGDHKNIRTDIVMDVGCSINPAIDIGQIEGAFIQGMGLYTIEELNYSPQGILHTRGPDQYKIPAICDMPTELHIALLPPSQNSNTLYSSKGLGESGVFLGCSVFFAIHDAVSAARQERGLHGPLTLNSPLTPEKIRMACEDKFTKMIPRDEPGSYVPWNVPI
reportedMetric: Kd
The answer should read as a number with its unit following.

Inquiry: Please indicate recorded Kd of CNC(=O)c1cc(Oc2ccc(NC(=O)Nc3ccc(Cl)c(C(F)(F)F)c3)c(F)c2)ccn1 [regorafenib] measured with aldehyde oxidase 1 (AOX1) (Homo sapiens, UniProt Q06278).
Reply text: 42.7 µM
